Where do these numbers come from? They come from the supplement of paper PMC10065799.

Molecular target: c-Src SH2;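 also: peptide library displayed on the E. coli surface as eCPX fusions, selected cells deep-sequenced, score is each peptide's frequency after selection divided by its frequency in the input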
Experiment: SH2 binding enrichment of the phosphorylated peptide, bacterial display (enrichment ratio); higher = better substrate or ligand; peptides without Tyr show the background
assay metric: SH2 binding enrichment

As a guide, the following entries are already answered.
In [3]: df
Out[3]:
                                 seq  assay_system  experimental_result
0             ISRLKYPVSQQ [BTK_Y375]     c-Src SH2                0.831
1       RHPEVYHHLGI [NVL_Y290_V295I]     c-Src SH2                0.932
2          GMEIVYVFVKK [DNAI2_Y5_YF]     c-Src SH2                0.556
3  FVSLIYTNFEA [GSTP1_Y109_I105V_YF]     c-Src SH2                  0.8
4    KFDLMYAKHAF [TUBA1A_Y399_R402H]     c-Src SH2                0.527

[A] VYAADYYKLLG [ROR2_Y645]
[B] LSNFNYEQRGA [API5_Y497_G493S]
Between item A and item B , which reported SH2 binding enrichment is smaller? When you have decided, please share the label of that item.
B
(B: 0.48, A: 0.789)

[A] GISDEYHVIQH [GCDH_Y398_R402Q]
[B] SRDPFYEMLAA [CYTH1_Y382]
Pick the one with the larger SH2 binding enrichment: A vs B When you have decided, please share the label of that item.
B
(B: 2.44, A: 0.816)

###

Target: Jak2 (UniProt O60674)
Sequence (O60674 whole entry, looked up): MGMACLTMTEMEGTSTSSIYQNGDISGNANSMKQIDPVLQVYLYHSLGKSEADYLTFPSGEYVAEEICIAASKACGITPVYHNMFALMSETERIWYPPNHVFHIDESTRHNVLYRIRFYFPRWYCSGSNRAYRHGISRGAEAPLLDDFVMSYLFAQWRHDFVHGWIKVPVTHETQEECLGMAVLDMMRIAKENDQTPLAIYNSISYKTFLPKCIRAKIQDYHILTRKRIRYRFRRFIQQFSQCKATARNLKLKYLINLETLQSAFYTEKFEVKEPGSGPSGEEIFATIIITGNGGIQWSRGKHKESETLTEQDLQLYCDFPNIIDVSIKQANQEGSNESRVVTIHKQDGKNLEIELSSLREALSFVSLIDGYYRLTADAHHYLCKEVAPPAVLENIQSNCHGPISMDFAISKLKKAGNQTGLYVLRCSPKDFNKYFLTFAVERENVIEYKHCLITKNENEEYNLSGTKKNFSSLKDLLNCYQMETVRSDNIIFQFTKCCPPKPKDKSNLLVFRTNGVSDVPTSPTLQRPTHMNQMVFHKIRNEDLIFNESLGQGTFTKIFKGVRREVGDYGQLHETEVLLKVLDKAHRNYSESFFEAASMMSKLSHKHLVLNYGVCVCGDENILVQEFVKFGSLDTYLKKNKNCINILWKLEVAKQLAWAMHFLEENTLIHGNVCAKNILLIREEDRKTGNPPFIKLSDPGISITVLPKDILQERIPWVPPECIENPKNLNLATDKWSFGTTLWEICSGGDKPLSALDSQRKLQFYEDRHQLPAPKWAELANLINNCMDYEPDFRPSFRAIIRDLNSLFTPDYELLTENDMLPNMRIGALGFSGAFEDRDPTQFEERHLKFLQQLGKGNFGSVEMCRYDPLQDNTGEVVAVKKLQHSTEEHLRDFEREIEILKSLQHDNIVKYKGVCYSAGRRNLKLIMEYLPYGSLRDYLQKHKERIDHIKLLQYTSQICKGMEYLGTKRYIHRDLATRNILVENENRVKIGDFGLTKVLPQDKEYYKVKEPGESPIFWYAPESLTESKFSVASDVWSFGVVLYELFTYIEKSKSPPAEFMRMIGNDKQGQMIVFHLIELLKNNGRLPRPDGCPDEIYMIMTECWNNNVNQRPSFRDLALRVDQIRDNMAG
Test: phosphorylation enrichment, bacterial display (enrichment ratio); higher = better substrate or ligand; peptides without Tyr show the background
assay metric: phosphorylation enrichment
Format: numeric value only, no unit, no commentary.

>>> print(df.to_string())
                                  seq  experimental_result
0            WKKEIYEESST [MOCS2_Y170]                 1.18
1  AIFWRYSKFFD [SH3PXD2B_Y45_R43W_YF]                 1.16

# phosphorylation enrichment lookup, item HSGVSYYINLC [IGF2R_Y2024_N2020S]
2.38

# phosphorylation enrichment lookup, item KKYFSYAWPFY [BRDT_Y291_H288Y]
1.24

# phosphorylation enrichment lookup, item AIIGIYILRDN [CDH23_Y2949_D2954N]
1.05

# phosphorylation enrichment lookup, item YSKDIYKRVTG [PANK2_Y405_N404I]
0.447

###

Tested on: c-Abl (mouse)
Experiment: phosphorylation enrichment, bacterial display (enrichment ratio); higher = better substrate or ligand; peptides without Tyr show the background
assay metric: phosphorylation enrichment
Format: numeric value only, no unit, no commentary.

As a guide, the following entries are already answered.
>>> df
                              seq                assay_metric  experimental_result
0       NNPAYYVLEGV [INPPL1_Y987]  phosphorylation enrichment                0.711
1      ADYYDYGHGLS [KHDRBS3_Y304]  phosphorylation enrichment                0.986
2  VATRWYWSPEL [CDKL5_Y177_R178W]  phosphorylation enrichment                0.771
3     LKRIAYFLCLR [LGI1_Y21_L26R]  phosphorylation enrichment                0.708
4     RESFKYFPSSL [CXXC1_Y218_YF]  phosphorylation enrichment                0.454

# phosphorylation enrichment lookup, item EYDRLYEEYTR [PIK3R1_Y467]
1.34

# phosphorylation enrichment lookup, item STTSDYQWDVS [MTDH_Y364]
0.782

# phosphorylation enrichment lookup, item MCITQYKRESQ [PRNP_Y218_E219K]
0.454

# phosphorylation enrichment lookup, item ALLTKYSHSSM [DSCC1_Y374]
0.727

# phosphorylation enrichment lookup, item PSRKDYETYQP [CTNND2_Y1154]
0.95

# phosphorylation enrichment lookup, item LTVVIYVLVGR [EPHA3_Y561_I564V]
0.81

# phosphorylation enrichment lookup, item NTPNAYLRVNV [ADD2_Y440_T439A]
0.706

# phosphorylation enrichment lookup, item RSSGGYEPRGR [FUS_Y239]
0.384

# phosphorylation enrichment lookup, item GACGGYCSVLG [RAB18_Y202]
0.461
